target: PglD acetyltransferase (Campylobacter jejuni) (UniProt O86157); assay: inhibition of C. jejuni PglD N-acetyltransferase – biochemical, DTNB absorbance, Campylobacter jejuni, cherry-picked samples, dose response (AID 624110); conditions: purified C. jejuni PglD, DTNB absorbance 412 nm; series mostly up to 19.5 µM
Sequence (O86157 1-203): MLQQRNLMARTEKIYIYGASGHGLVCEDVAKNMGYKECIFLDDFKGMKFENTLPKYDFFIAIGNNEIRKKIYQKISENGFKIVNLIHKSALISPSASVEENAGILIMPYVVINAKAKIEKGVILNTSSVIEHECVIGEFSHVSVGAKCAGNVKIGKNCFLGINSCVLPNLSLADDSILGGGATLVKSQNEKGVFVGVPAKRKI
The source made the active and inactive calls.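 The calls were made as follows: active = signal falls with dose and the fitted half-maximal concentration is at most twice the highest valid tested dose; inconclusive = flat fit with a moderate signal drop, or unreliable fit; inactive = opposite effect, flat near zero, or potency past limit.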

{"molecule": "Cc1noc(C)c1NC(=O)Nc1cccc2c1O[C@H](CN(C)C(=O)Nc1cccc3ccccc13)[C@@H](C)CN([C@H](C)CO)C2=O", "assayedSystem": "PglD acetyltransferase (Campylobacter jejuni) (UniProt O86157)", "outcome": "inactive"}
{"molecule": "COCC#Cc1cnc2c(c1)C(=O)N([C@@H](C)CO)C[C@H](C)[C@@H](CN(C)C(=O)C1CCC1)O2", "assayedSystem": "PglD acetyltransferase (Campylobacter jejuni) (UniProt O86157)", "outcome": "inactive"}
{"molecule": "C[C@H]1CN([C@@H](C)CO)C(=O)c2cccc(NC(=O)Nc3ccccc3)c2O[C@H]1CN(C)C", "assayedSystem": "PglD acetyltransferase (Campylobacter jejuni) (UniProt O86157)", "outcome": "inactive"}
{"molecule": "CC(=O)N[C@H]1CC[C@H](CC(=O)NCc2ccc(Cl)cc2)O[C@H]1CO", "assayedSystem": "PglD acetyltransferase (Campylobacter jejuni) (UniProt O86157)", "outcome": "inactive"}
{"molecule": "C/C=C/c1cnc2c(c1)C(=O)N([C@@H](C)CO)C[C@H](C)[C@@H](CN(C)C(=O)c1cccnc1)O2", "assayedSystem": "PglD acetyltransferase (Campylobacter jejuni) (UniProt O86157)", "outcome": "inactive"}
{"molecule": "C[C@@H]1CN([C@@H](C)CO)C(=O)c2cc(NC(=O)Nc3ccc(F)cc3)ccc2O[C@@H]1CN(C)CC1CCCCC1", "assayedSystem": "PglD acetyltransferase (Campylobacter jejuni) (UniProt O86157)", "outcome": "inactive"}
